Recorded measurements of IC50, one per entry
Study System: JAK3 (Homo sapiens, UniProt P52333)
Experiment Description: JAK 3 enzymatic inhibitory activity IC50 assay (Caliper conversion rate)
Type: biochemical
Condition Description: Km ATP, 28° C., 1 hour; read-out: JAK 3 enzymatic inhibitory activity IC50

{"columns": ["Molecule", "IC50"],
 "data": [
  ["CCS(=O)(=O)N1CC(CC#N)(n2cc(-c3nc(Nc4cnn(CCC(=O)N(C)C)c4)nc4ccsc34)cn2)C1 [Compound T-36]", "< 50 nM"],
  ["CCS(=O)(=O)N1CC(CC#N)(n2cc(-c3nc(Nc4ccc(-n5cccn5)cc4)nc4ccsc34)cn2)C1 [Compound T-11]", "> 1000 nM"],
  ["CCS(=O)(=O)N1CC(CC#N)(n2cc(-c3nc(Nc4cnn(C5CN(C)C5)c4)nc4ccsc34)cn2)C1 [Compound T-54]", "50 to 500 nM"],
  ["CC(C)(O)Cn1cc(Nc2nc(-c3cnn(C4(CC#N)CN(S(C)(=O)=O)C4)c3)c3sccc3n2)cn1 [Compound T-78]", "< 50 nM"],
  ["CC(CC#N)n1cc(-c2nc(NCc3ccccc3)nc3ccsc23)cn1 (stereo not shown) [Compound T-01]", "> 1000 nM"],
  ["CCS(=O)(=O)N1CC(CC#N)(n2cc(-c3nc(Nc4ccc(-n5cnnn5)cc4)nc4ccsc34)cn2)C1 [Compound T-59]", "50 to 500 nM"],
  ["CCS(=O)(=O)N1CC(CC#N)(n2cc(-c3nc(Nc4ccncc4)nc4ccsc34)cn2)C1 [Compound T-21]", "50 to 500 nM"]
]}

---

Study System: JAK3 (Homo sapiens, UniProt P52333)
Sequence (P52333 1-1124): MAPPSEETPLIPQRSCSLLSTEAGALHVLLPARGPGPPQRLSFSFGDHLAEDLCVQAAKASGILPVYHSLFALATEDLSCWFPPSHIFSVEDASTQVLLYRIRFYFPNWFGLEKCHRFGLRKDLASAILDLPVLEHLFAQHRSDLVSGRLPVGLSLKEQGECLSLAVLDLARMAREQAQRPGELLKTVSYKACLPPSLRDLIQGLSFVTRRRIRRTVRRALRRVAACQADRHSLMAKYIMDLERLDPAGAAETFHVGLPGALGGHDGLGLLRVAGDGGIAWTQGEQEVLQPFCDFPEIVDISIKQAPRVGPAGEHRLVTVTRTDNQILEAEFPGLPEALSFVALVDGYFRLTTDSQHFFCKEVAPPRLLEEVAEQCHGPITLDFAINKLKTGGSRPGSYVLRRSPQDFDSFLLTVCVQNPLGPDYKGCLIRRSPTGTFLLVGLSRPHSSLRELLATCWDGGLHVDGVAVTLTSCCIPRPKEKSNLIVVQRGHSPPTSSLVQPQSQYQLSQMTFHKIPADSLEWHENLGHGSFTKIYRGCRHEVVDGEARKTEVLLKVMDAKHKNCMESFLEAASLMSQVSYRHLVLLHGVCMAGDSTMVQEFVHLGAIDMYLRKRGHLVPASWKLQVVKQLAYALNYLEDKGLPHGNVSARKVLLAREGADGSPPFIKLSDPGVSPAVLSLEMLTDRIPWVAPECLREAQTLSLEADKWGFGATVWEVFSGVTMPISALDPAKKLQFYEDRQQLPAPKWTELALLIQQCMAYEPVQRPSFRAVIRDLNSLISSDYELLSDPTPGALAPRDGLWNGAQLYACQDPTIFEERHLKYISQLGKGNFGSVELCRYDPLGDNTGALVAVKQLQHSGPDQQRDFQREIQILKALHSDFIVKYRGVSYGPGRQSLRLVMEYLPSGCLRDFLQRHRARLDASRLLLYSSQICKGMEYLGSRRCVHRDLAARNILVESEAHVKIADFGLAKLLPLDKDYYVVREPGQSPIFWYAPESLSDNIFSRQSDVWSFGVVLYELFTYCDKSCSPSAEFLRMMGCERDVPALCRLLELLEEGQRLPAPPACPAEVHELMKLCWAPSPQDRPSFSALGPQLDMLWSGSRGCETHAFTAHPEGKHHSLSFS
Experiment Description: JAK 3 enzymatic inhibitory activity IC50 assay (Caliper conversion rate)
Format: biochemical
Condition Description: Km ATP, 28° C., 1 hour; read-out: JAK 3 enzymatic inhibitory activity IC50
Quantity Measured: IC50

{"columns": ["Compound", "Study System", "Result"],
 "data": [
  ["CCS(=O)(=O)N1CC(CC#N)(n2cc(-c3nc(Nc4cccc(N5CCOCC5)c4)nc4ccsc34)cn2)C1 [Compound T-13]", "JAK3 (Homo sapiens, UniProt P52333)", "0.5 to 1 µM"],
  ["CCS(=O)(=O)N1CC(CC#N)(n2cc(-c3nc(Nc4ccc(S(C)(=O)=O)cc4)nc4sccc34)cn2)C1 [Compound T-18]", "JAK3 (Homo sapiens, UniProt P52333)", "0.5 to 1 µM"],
  ["CC(CC#N)n1cc(-c2nc(Nc3ccccc3)nc3ccsc23)cn1 (centres unmarked) [Compound T-02]", "JAK3 (Homo sapiens, UniProt P52333)", "> 1 µM"],
  ["C[C@H](CO)n1cc(Nc2nc(-c3cnn(C4(CC#N)CN(S(C)(=O)=O)C4)c3)c3sccc3n2)cn1 [Compound T-84]", "JAK3 (Homo sapiens, UniProt P52333)", "< 0.05 µM"],
  ["CCS(=O)(=O)N1CC(CC#N)(n2cc(-c3nc(Nc4cnn(CCC(=O)O)c4)nc4ccsc34)cn2)C1 [Compound T-35]", "JAK3 (Homo sapiens, UniProt P52333)", "0.05 to 0.5 µM"],
  ["CCS(=O)(=O)N1CC(CC#N)(n2cc(-c3nc(Nc4cnn(CCCN5CCN(C)CC5)c4)nc4ccsc34)cn2)C1 [Compound T-67]", "JAK3 (Homo sapiens, UniProt P52333)", "< 0.05 µM"],
  ["Cn1cc(Nc2nc(-c3cnn(C4(CC#N)CCOCC4)c3)c3sccc3n2)cn1 [Compound T-44]", "JAK3 (Homo sapiens, UniProt P52333)", "0.05 to 0.5 µM"],
  ["CCS(=O)(=O)N1CC(CC#N)(n2cc(-c3nc(Nc4cnn(C5CNC5)c4)nc4ccsc34)cn2)C1 [Compound T-65]", "JAK3 (Homo sapiens, UniProt P52333)", "0.05 to 0.5 µM"],
  ["CCS(=O)(=O)N1CC(CC#N)(n2cc(-c3nc(Nc4cn(C)cn4)nc4ccsc34)cn2)C1 [Compound T-48]", "JAK3 (Homo sapiens, UniProt P52333)", "> 1 µM"],
  ["CC(C)(CO)n1cc(Nc2nc(-c3cnn(C4(CC#N)CN(S(C)(=O)=O)C4)c3)c3sccc3n2)cn1 [Compound T-79]", "JAK3 (Homo sapiens, UniProt P52333)", "< 0.05 µM"],
  ["Cn1cc(Nc2nc(-c3cnn(C4(CC#N)COC4)c3)c3ccsc3n2)cn1 [Compound T-42]", "JAK3 (Homo sapiens, UniProt P52333)", "> 1 µM"],
  ["CCS(=O)(=O)N1CC(CC#N)(n2cc(-c3nc(Nc4cnn(C5CN(CC6CC6)C5)c4)nc4ccsc34)cn2)C1 [Compound T-66]", "JAK3 (Homo sapiens, UniProt P52333)", "< 0.05 µM"],
  ["CCS(=O)(=O)N1CC(CC#N)(n2cc(-c3nc(Nc4cnn(C5CCOCC5)c4)nc4ccsc34)cn2)C1 [Compound T-38]", "JAK3 (Homo sapiens, UniProt P52333)", "< 0.05 µM"],
  ["CCS(=O)(=O)N1CC(CC#N)(n2cc(-c3nc(NC4CCOCC4)nc4ccsc34)cn2)C1 [Compound T-06]", "JAK3 (Homo sapiens, UniProt P52333)", "> 1 µM"],
  ["CCS(=O)(=O)N1CC(CC#N)(n2cc(-c3nc(Nc4ccc5[nH]cnc5c4)nc4ccsc34)cn2)C1 [Compound T-58]", "JAK3 (Homo sapiens, UniProt P52333)", "0.05 to 0.5 µM"],
  ["CCS(=O)(=O)N1CC(CC#N)(n2cc(-c3nc(Nc4cnn(C5COC5)c4)nc4ccsc34)cn2)C1 [Compound T-39]", "JAK3 (Homo sapiens, UniProt P52333)", "< 0.05 µM"],
  ["Cn1cc(Nc2nc(-c3cnn(C4(CC#N)CN(S(C)(=O)=O)C4)c3)c3sccc3n2)cn1 [Compound T-74]", "JAK3 (Homo sapiens, UniProt P52333)", "< 0.05 µM"],
  ["CCS(=O)(=O)N1CC(CC#N)(n2cc(-c3nc(Nc4ccc(OCCN5CCOCC5)cc4)nc4ccsc34)cn2)C1 [Compound T-08]", "JAK3 (Homo sapiens, UniProt P52333)", "0.05 to 0.5 µM"],
  ["CCS(=O)(=O)N1CC(CC#N)(n2cc(-c3nc(Nc4ccc5[nH]ncc5c4)nc4ccsc34)cn2)C1 [Compound T-57]", "JAK3 (Homo sapiens, UniProt P52333)", "0.05 to 0.5 µM"],
  ["CCS(=O)(=O)N1CC(CC#N)(n2cc(-c3nc(Nc4cn[nH]c4)nc4ccsc34)cn2)C1 [Compound T-31]", "JAK3 (Homo sapiens, UniProt P52333)", "0.05 to 0.5 µM"],
  ["CCS(=O)(=O)N1CC(CC#N)(n2cc(-c3nc(Nc4cnn(C5CCN(C)CC5)c4)nc4ccsc34)cn2)C1 [Compound T-64]", "JAK3 (Homo sapiens, UniProt P52333)", "< 0.05 µM"],
  ["CCS(=O)(=O)N1CC(CC#N)(n2cc(-c3nc(Nc4ccnnc4)nc4ccsc34)cn2)C1 [Compound T-47]", "JAK3 (Homo sapiens, UniProt P52333)", "> 1 µM"],
  ["C[C@@H](CO)n1cc(Nc2nc(-c3cnn(C4(CC#N)CN(S(C)(=O)=O)C4)c3)c3sccc3n2)cn1 [Compound T-85]", "JAK3 (Homo sapiens, UniProt P52333)", "< 0.05 µM"],
  ["CCS(=O)(=O)N1CC(CC#N)(n2cc(-c3nc(Nc4ccn(C)n4)nc4ccsc34)cn2)C1 [Compound T-25]", "JAK3 (Homo sapiens, UniProt P52333)", "0.05 to 0.5 µM"],
  ["N#CCNC(=O)c1ccc(-c2nc(Nc3ccccc3)nc3ccsc23)cc1 [Compound T-16]", "JAK3 (Homo sapiens, UniProt P52333)", "> 1 µM"],
  ["CS(=O)(=O)CCCn1cc(Nc2nc(-c3cnn(C4(CC#N)CCC4)c3)c3sccc3n2)cn1 [Compound T-73]", "JAK3 (Homo sapiens, UniProt P52333)", "0.05 to 0.5 µM"],
  ["CCC(=O)N1CC(CC#N)(n2cc(-c3nc(Nc4cnn(C)c4)nc4ccsc34)cn2)C1 [Compound T-46]", "JAK3 (Homo sapiens, UniProt P52333)", "0.5 to 1 µM"],
  ["CCS(=O)(=O)N1CC(CC#N)(n2cc(-c3nc(Nc4cccnc4)nc4ccsc34)cn2)C1 [Compound T-26]", "JAK3 (Homo sapiens, UniProt P52333)", "0.05 to 0.5 µM"],
  ["CCS(=O)(=O)N1CC(CC#N)(n2cc(-c3nc(Nc4ccc(N5CCOCC5)cc4)nc4ccsc34)cn2)C1 [Compound T-07]", "JAK3 (Homo sapiens, UniProt P52333)", "0.05 to 0.5 µM"]
]}

The values you see were collected from patent US9745320B2.
